Values compiled from patent US8389552B2.

- EXPERIMENTAL TARGET: Full-length glucokinase (beta cell isoform) (Homo sapiens, UniProt P35557)
- Construct: Full-length glucokinase (beta cell isoform) was His-tagged at N-terminus; His tag (N); made in house; host or cells: E. coli BL21(DE3), pBCGK vector
- MEASUREMENT DESCRIPTION: Glucokinase activation assay (PK/LDH-coupled, NADH depletion at 340 nm)
- Type: biochemical
- EXPERIMENTAL PARAMETERS: % max activation = (Va/Vo−1)×100 from fit; 5 mM glucose, pH 7.1; single value or range where N>1; read-out: Maximum Activation (%)
Provide the reported Emax of each item.
Kindly provide the numeric value in % only, without the unit symbol.

Incoming: Query: Emax; subject: Cc1ccc(NC(=O)[C@H](CC2CCCC2)n2ncc(C(F)(F)F)c2C)nc1
Outgoing: 136

Incoming: Query: Emax; subject: Cn1ccc(NC(=O)[C@H](CC2CCCC2)n2nnc(S(C)(=O)=O)n2)n1
Outgoing: 99

Incoming: Query: Emax; subject: Cc1ccc(NC(=O)[C@H](CC2CCCC2)n2cnc(S(C)(=O)=O)n2)nc1
Outgoing: 116

Incoming: Query: Emax; subject: CS(=O)(=O)c1cnn([C@@H](CC2CCCC2)C(=O)Nc2ccncn2)c1
Outgoing: 100

Incoming: Query: Emax; subject: CCS(=O)(=O)c1cnn([C@@H](CC2CCCC2)C(=O)Nc2ccc(C)cn2)c1
Outgoing: 65

Incoming: Query: Emax; subject: CCn1ccc(NC(=O)[C@H](CC2CCCC2)n2cc(S(C)(=O)=O)cn2)n1
Outgoing: 110

Incoming: Query: Emax; subject: O=C(Nc1cnccn1)[C@H](CC1CCCC1)n1cnc(C(F)(F)F)n1
Outgoing: 171

Incoming: Query: Emax; subject: CC(C)(O)C(=O)Nc1ccc(NC(=O)[C@H](CC2CCCC2)n2cnc(C(F)(F)F)c2)nc1
Outgoing: 104

Incoming: Query: Emax; subject: CC(C)S(=O)(=O)c1cnn([C@@H](CC2CCCC2)C(=O)Nc2ccc3ccccc3n2)c1
Outgoing: 23

Incoming: Query: Emax; subject: CS(=O)(=O)c1cn([C@@H](CC2CCCC2)C(=O)Nc2ccc(C(=O)O)cn2)cn1
Outgoing: 160

Incoming: Query: Emax; subject: O=C(Nc1ccc(CP(=O)(O)O)cn1)[C@H](CC1CCCC1)n1cnc(C(F)(F)F)c1
Outgoing: 112

Incoming: Query: Emax; subject: CCS(=O)(=O)c1cn([C@@H](CC2CCCC2)C(=O)Nc2cnc(C)cn2)cn1
Outgoing: 136

Incoming: Query: Emax; subject: Cn1ccc(NC(=O)[C@H](CC2CCCC2)n2cnc(S(C)(=O)=O)n2)n1
Outgoing: 89

###

- EXPERIMENTAL TARGET: Full-length glucokinase (beta cell isoform) (Homo sapiens)
- Construct: Full-length glucokinase (beta cell isoform) was His-tagged at N-terminus; His tag (N); made in house; host or cells: E. coli BL21(DE3), pBCGK vector
- Sequence (P35557 1-465): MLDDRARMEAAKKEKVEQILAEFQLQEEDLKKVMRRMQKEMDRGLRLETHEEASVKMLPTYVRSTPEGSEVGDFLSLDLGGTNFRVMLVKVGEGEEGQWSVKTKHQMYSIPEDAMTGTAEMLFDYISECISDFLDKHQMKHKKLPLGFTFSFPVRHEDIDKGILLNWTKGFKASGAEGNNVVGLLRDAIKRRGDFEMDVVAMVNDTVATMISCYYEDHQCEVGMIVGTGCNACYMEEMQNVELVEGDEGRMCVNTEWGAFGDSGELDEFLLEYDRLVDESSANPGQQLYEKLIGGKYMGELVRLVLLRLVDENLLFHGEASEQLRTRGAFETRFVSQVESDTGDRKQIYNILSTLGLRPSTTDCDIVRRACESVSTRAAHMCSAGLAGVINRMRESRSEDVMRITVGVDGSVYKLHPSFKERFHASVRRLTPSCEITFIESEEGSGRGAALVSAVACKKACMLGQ
- MEASUREMENT DESCRIPTION: Glucokinase activation assay (PK/LDH-coupled, NADH depletion at 340 nm)
- Format: biochemical
- EXPERIMENTAL PARAMETERS: 5 mM glucose, 2.5 mM ATP, pH 7.1, room temperature; single value or range where N>1; read-out: EC50
READOUT: pEC50
// pEC50 is dimensionless: -log10 of concentration (M)

Incoming: Query: pEC50; subject: Cc1cnc(NC(=O)[C@H](CC2CCCC2)n2cnc(C(F)(F)F)c2)cn1
Outgoing: 5.70

Incoming: Query: pEC50; subject: CS(=O)(=O)c1cnn([C@@H](CC2CCCC2)C(=O)Nc2ccc(C(F)(F)F)cn2)c1
Outgoing: 5.32

###

- EXPERIMENTAL TARGET: Full-length glucokinase (beta cell isoform) (Homo sapiens, UniProt P35557)
- Construct: Full-length glucokinase (beta cell isoform) was His-tagged at N-terminus; His tag (N); made in house; host or cells: E. coli BL21(DE3), pBCGK vector
- MEASUREMENT DESCRIPTION: Glucokinase activation assay (PK/LDH-coupled, NADH depletion at 340 nm)
- Type: biochemical
- EXPERIMENTAL PARAMETERS: 5 mM glucose, 2.5 mM ATP, pH 7.1, room temperature; single value or range where N>1; read-out: EC50
READOUT: EC50

Incoming: Query: EC50; subject: Cc1nc(C(F)(F)F)cn1[C@@H](CC1CCCC1)C(=O)Nc1ccc(C(=O)O)cn1 [Example 92]
Outgoing: 0.4 to 1.2 µM

Incoming: Query: EC50; subject: Cc1cnc(NC(=O)[C@H](CC2CCCC2)n2nnc(S(C)(=O)=O)n2)cn1 [Example 81]
Outgoing: > 50 µM

Incoming: Query: EC50; subject: Cn1ccc(NC(=O)[C@H](CC2CCCC2)n2cnc(C(F)(F)F)c2)n1 [Example 43]
Outgoing: 2.9 to 3.5 µM

Incoming: Query: EC50; subject: CC(C)S(=O)(=O)c1cnn([C@@H](CC2CCCC2)C(=O)Nc2ncccn2)c1 [Example 5]
Outgoing: > 100 µM

Incoming: Query: EC50; subject: Cc1ccc(NC(=O)[C@H](CC2CCOCC2)n2cnc(C(F)(F)F)c2)nc1 [Example 75]
Outgoing: 0.8 to 2 µM

Incoming: Query: EC50; subject: Cc1ccc(NC(=O)[C@H](CC2CCCC2)n2cnc(S(=O)(=O)C(C)C)c2)nc1 [Example 28]
Outgoing: > 100 µM

Incoming: Query: EC50; subject: Cc1cnc(NC(=O)[C@H](CC2CCCC2)n2cc(C(=O)N(C)C)cn2)cn1 [Example 73]
Outgoing: > 100 µM

###

- EXPERIMENTAL TARGET: Full-length glucokinase (beta cell isoform) (Homo sapiens)
- Construct: Full-length glucokinase (beta cell isoform) was His-tagged at N-terminus; His tag (N); made in house; host or cells: E. coli BL21(DE3), pBCGK vector
- Sequence (P35557 1-465): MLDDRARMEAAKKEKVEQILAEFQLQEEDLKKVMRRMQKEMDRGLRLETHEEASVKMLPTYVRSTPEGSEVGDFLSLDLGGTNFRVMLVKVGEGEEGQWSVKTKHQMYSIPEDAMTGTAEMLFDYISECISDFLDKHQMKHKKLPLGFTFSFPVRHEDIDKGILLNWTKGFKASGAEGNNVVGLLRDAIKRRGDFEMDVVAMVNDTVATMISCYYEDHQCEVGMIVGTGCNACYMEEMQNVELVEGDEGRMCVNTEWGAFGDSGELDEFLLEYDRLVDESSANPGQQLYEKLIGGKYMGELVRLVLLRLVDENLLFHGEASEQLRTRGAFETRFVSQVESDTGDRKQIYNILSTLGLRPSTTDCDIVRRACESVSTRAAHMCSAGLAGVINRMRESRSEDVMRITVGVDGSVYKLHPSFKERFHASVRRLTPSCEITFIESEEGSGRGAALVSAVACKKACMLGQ
- MEASUREMENT DESCRIPTION: Glucokinase activation assay (PK/LDH-coupled, NADH depletion at 340 nm)
- Type: biochemical
- EXPERIMENTAL PARAMETERS: % max activation = (Va/Vo−1)×100 from fit; 5 mM glucose, pH 7.1; single value or range where N>1; read-out: Maximum Activation (%)
Provide the reported Emax of each item.
Kindly provide the numeric value in % only, without the unit symbol.

Incoming: Provide the documented Emax with Full-length glucokinase (beta cell isoform) (Homo sapiens) as the system for Cn1ccc(NC(=O)[C@H](CC2CCOCC2)n2cnc(C(F)(F)F)c2)n1 [Example 76]
Outgoing: 138

Incoming: Provide the documented Emax with Full-length glucokinase (beta cell isoform) (Homo sapiens) as the system for CCn1ccc(NC(=O)[C@H](CC2CCCC2)n2cc(S(=O)(=O)C(C)C)cn2)n1 [Example 18]
Outgoing: 24

Incoming: Provide the documented Emax with Full-length glucokinase (beta cell isoform) (Homo sapiens) as the system for Cc1ccc(NC(=O)[C@H](CC2CCCC2)n2ccc(C(F)(F)F)n2)nc1 [Example 69]
Outgoing: 90
